Data provenance: the Human Domainome abundance scans (Beltran et al. 2025)

B1: Homeobox protein SIX6, residues 134 to 184; numbered along this chain, O95475 (parent)
chain: CFKERTRHLLREWYLQDPYPNPSKKRELAQATGLTPTQVGNWFKNRRQRDR

Variants of: B1
Test: abundance fitness (aPCA) (normalised: wild type 0, dead -1); higher = more abundant; growth selection in yeast, the domain comes from the species named
Settings: Homo sapiens
Here, each record is paired with measured abundance fitness data.

- sequenceText: "CFKERTRHLLREWYLQDPAPNPSKKRELAQATGLTPTQVGNWFKNRRQRDR"
  abundance fitness: -0.526
- sequenceText: "CFKERTRHLLREWYLQDPYPNPSKKRELAQATGLTPTQVGNWFKNRRQHDR"
  abundance fitness: -0.889
- sequenceText: "CFKERTRHLLREWYLQDPYPNPSKKRELAQLTGLTPTQVGNWFKNRRQRDR"
  abundance fitness: 0.068
- sequenceText: "CFKERTRHLLREWYLQDPYPNPSKKREPAQATGLTPTQVGNWFKNRRQRDR"
  abundance fitness: -0.958
